# maps each entry to its IC50
Molecular target: recombinant human Meningioma Expressed Antigen 5 (MGEA5), also referred to as O-GlcNAcase (OGA) (Homo sapiens, UniProt O60502)
Construct: Full length OGA enzyme was purchased at OriGene (cat # TP322411); purchased OriGene TP322411
Sequence (O60502 1-916): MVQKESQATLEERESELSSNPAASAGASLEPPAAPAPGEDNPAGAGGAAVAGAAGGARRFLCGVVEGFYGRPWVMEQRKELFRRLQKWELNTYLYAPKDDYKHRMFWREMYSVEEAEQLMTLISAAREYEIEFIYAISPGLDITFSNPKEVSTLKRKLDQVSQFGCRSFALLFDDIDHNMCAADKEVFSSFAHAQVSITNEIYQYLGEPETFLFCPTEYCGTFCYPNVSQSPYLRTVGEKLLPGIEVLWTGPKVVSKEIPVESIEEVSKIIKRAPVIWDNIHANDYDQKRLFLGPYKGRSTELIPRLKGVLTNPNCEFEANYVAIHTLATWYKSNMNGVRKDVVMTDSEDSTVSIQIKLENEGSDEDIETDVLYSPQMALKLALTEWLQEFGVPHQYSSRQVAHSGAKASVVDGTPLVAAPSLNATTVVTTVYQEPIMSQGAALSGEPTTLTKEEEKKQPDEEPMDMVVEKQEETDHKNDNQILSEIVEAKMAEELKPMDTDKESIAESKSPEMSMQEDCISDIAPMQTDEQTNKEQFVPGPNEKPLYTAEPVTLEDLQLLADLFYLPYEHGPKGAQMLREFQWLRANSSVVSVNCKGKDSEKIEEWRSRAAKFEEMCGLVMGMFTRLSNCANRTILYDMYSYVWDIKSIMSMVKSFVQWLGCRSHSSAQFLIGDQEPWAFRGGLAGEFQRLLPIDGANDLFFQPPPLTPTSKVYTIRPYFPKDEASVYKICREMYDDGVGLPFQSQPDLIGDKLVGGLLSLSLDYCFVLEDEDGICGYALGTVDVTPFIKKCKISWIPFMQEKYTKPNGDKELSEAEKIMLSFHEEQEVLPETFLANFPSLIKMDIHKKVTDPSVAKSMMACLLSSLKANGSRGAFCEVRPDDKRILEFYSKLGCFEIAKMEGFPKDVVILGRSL
Experiment: OGA biochemical assay: inhibition of FM-GlcNAc hydrolysis, fluorescence; protocol A (10 nM OGA, 1 h) or protocol B (2 nM OGA, 6 h)
Details: Enzymatic protocol B (2 nM OGA, 6 h); read-out: Enzymatic hOGA; pIC50 (converted)
Parameter measured: IC50 (nM)

{"columns": ["Molecule", "Number"],
 "data": [
  ["CC(=O)Nc1ncc(CN2CCCC(c3cc(C)nc(C)c3)C2)s1 (single isomer, unassigned) [compound 130]", 9.12],
  ["CC(=O)Nc1ncc(CN2CC[C@H](Cc3cc(C)c(F)cn3)C2)s1", 14.8],
  ["Cc1cc(C[C@H]2CCN(C(C)c3ccc4nccnc4c3)C2)cc(C)n1 (mixture of isomers)", 427],
  ["CC(=O)Nc1ncc(CN2CC[C@@H](Cc3cc(C)nc(F)c3)C2)s1", 30.9],
  ["CC(=O)Nc1ncc(CN2CCC[C@H](Cc3ccc(F)c(C)n3)C2)s1", 2.82],
  ["CC(=O)Nc1ncc(CN2CCCC(COc3cc(C)nc(C)c3)C2)s1 (centres unmarked)", 6.76],
  ["Cc1cc(N[C@@H]2CCCN(Cc3ccc4nccnc4c3)C2)cc(C)n1", 1660],
  ["Cc1cc(C[C@H]2CCCN(Cc3ccc4sc(C)nc4c3)C2)cc(C)n1", 126]
]}

---

Target: recombinant human Meningioma Expressed Antigen 5 (MGEA5), also referred to as O-GlcNAcase (OGA) (Homo sapiens, UniProt O60502)
Construct: Full length OGA enzyme was purchased at OriGene (cat # TP322411); purchased OriGene TP322411
Assay: OGA biochemical assay: inhibition of FM-GlcNAc hydrolysis, fluorescence; protocol A (10 nM OGA, 1 h) or protocol B (2 nM OGA, 6 h)
Conditions: Enzymatic protocol B (2 nM OGA, 6 h); read-out: Enzymatic hOGA; pIC50 (converted)
Description: The assay is based on the inhibition of the hydrolysis of fluorescein mono-3-D-N-Acetyl-Glucosamine (FM-GlcNAc) (Mariappa et al. 2015, Biochem J 470:255) by the recombinant human Meningioma Expressed Antigen 5 (MGEA5), also referred to as O-GlcNAcase (OGA). […] The fluorescence of the latter can be measured at excitation wavelength 485 nm and emission wavelength 538 nm. An increase in enzyme activity results in an increase in fluorescence signal. […]
Parameter measured: log10(IC50) (log10 of the value in nM)

{"columns": ["Compound", "Parameter measured", "Number"],
 "data": [
  ["CC(=O)Nc1ncc(CN2CCC[C@H](Cc3cnc(C)c(C)n3)C2)s1", "log10(IC50)", 0.24],
  ["Cc1cc(C[C@H]2CCN(C(C)c3ccc4sc(C)nc4c3)C2)cc(C)n1 (mixture of isomers)", "log10(IC50)", 1.77],
  ["CC(=O)Nc1ncc(CN2CC[C@H](Cc3cc(C)nc(F)c3)C2)s1", "log10(IC50)", 1.30],
  ["CC(=O)Nc1ncc(CN2CC[C@H](Cc3ccc(C(F)F)cn3)C2)s1", "log10(IC50)", 1.89],
  ["Cc1cc(CC2CCCN(C(C)c3ccc4c(c3)OCO4)C2)cc(C)n1 (racemic)", "log10(IC50)", 1.04],
  ["CC(=O)Nc1ncc(CN2CC[C@H](Cc3ncc(C)nc3C)C2)s1", "log10(IC50)", 0.50],
  ["Cc1cc(C[C@H]2CCCN(Cc3ccc4c(c3)OCCO4)C2)cc(C)n1", "log10(IC50)", 2.01]
]}

---

biological target: recombinant human Meningioma Expressed Antigen 5 (MGEA5), also referred to as O-GlcNAcase (OGA) (Homo sapiens); construct: Full length OGA enzyme was purchased at OriGene (cat # TP322411); purchased OriGene TP322411; assay: OGA biochemical assay: inhibition of FM-GlcNAc hydrolysis, fluorescence; protocol A (10 nM OGA, 1 h) or protocol B (2 nM OGA, 6 h); details: Enzymatic protocol B (2 nM OGA, 6 h); read-out: Enzymatic hOGA; pIC50 (converted)

{"columns": ["Molecule", "IC50"],
 "data": [
  ["CC(=O)Nc1ncc(CN2CCCC(COc3cc(C)nc(C)c3)C2)o1 (centres unmarked)", "0.0537 µM"],
  ["Cc1cc(CC2CCCN(C(C)c3ccc4sc(C)nc4c3)C2)cc(C)n1 (single isomer, unassigned) [compound 118]", "0.0468 µM"],
  ["CC(=O)Nc1ncc(CN2CCC(Cc3ncccc3F)C2)s1 (centres unmarked)", "0.0603 µM"],
  ["CC(=O)Nc1ncc(CN2CCCC(COc3cc(C)nc(C)c3)C2)[nH]1 (racemic) [compound 132]", "1.23 µM"],
  ["CC(=O)Nc1ncc(CN2CCCC(Cc3cc(C)nc(C)c3)C2)s1 (centres unmarked)", "0.00245 µM"],
  ["CC(=O)Nc1ncc(CN2CCC(Cc3cccc(C(C)C)n3)C2)s1 (centres unmarked)", "0.00776 µM"],
  ["Cc1cc(N[C@H]2CCCN(Cc3ccc4nccnc4c3)C2)cc(C)n1", "0.676 µM"],
  ["Cc1cc(C[C@H]2CCCN(Cc3nc4ccccc4[nH]3)C2)cc(C)n1", "> 10 µM"],
  ["CC(=O)Nc1ncc(CN2CCC[C@H](Cc3nc(C)cnc3C)C2)s1", "0.00182 µM"],
  ["CC(=O)Nc1ncc(CN2CCC(Cc3ncc(F)cc3C)C2)s1 (centres unmarked)", "0.02 µM"],
  ["Cc1cc(C2CCCN(C(C)c3ccc4nccnc4c3)C2)cc(C(F)(F)F)n1 (centres unmarked)", "0.0417 µM"],
  ["CC(=O)Nc1ncc(CN2CCC(Cc3cc(F)ncc3C)C2)s1 (centres unmarked)", "0.0214 µM"],
  ["CC(=O)Nc1ncc(CN2CCCC(Oc3cc(C)cc(C)c3)C2)s1 (centres unmarked) [compound 13, reference compound]", "0.0933 µM"],
  ["Cc1cc(C[C@H]2CCN(C(C)c3ccc4c(c3)OCO4)C2)cc(C)n1 (mixture of isomers)", "0.309 µM"],
  ["CC(=O)Nc1ncc(CN2CC[C@H](Cc3cc(C)cnn3)C2)s1", "0.0257 µM"],
  ["CC(=O)Nc1ncc(CN2CCC[C@H](Cc3cc(C)nc(C)c3)C2)s1", "0.00105 µM"],
  ["CC(=O)Nc1ncc(C(C)N2CCCC(COc3cc(C)nc(C)c3)C2)s1 (single isomer, unassigned) [compound 134]", "0.0282 µM"]
]}

---

Molecular target: recombinant human Meningioma Expressed Antigen 5 (MGEA5), also referred to as O-GlcNAcase (OGA) (Homo sapiens)
Construct: Full length OGA enzyme was purchased at OriGene (cat # TP322411); purchased OriGene TP322411
Sequence (O60502 1-916): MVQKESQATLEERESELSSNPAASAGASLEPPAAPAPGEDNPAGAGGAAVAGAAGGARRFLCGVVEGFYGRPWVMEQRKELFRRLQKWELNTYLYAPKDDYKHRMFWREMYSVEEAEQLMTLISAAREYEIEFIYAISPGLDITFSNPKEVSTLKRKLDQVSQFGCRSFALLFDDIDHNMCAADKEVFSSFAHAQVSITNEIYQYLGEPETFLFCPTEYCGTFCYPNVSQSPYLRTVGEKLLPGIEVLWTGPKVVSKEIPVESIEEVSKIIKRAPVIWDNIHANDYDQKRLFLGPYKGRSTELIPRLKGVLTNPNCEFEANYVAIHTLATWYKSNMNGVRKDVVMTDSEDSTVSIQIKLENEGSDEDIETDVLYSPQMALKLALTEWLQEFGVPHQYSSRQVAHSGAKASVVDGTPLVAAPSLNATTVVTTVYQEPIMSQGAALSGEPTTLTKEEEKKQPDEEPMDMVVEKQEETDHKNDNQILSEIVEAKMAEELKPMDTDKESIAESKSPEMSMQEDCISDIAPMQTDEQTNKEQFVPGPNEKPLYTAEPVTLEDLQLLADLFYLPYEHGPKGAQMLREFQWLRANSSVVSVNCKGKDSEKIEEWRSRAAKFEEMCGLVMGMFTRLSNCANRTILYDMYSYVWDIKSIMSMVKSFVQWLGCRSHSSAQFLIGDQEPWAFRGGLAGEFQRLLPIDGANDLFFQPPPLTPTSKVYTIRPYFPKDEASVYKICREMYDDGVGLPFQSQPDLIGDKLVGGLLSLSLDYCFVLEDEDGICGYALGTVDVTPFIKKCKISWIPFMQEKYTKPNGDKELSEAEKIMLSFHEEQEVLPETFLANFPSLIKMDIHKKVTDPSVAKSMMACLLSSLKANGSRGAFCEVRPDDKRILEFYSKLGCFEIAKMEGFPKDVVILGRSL
Test: OGA biochemical assay: inhibition of FM-GlcNAc hydrolysis, fluorescence; protocol A (10 nM OGA, 1 h) or protocol B (2 nM OGA, 6 h)
Settings: Enzymatic protocol A (10 nM OGA, 1 h); read-out: Enzymatic hOGA; pIC50 (converted)
Parameter: IC50. Scope: all listed entries.

{"columns": ["Molecule", "Readout units", "Inequality sign", "IC50"],
 "data": [
  ["CC(=O)Nc1ncc(S(=O)(=O)N2CCCC(Oc3ccnc(C)c3)C2)s1 (centres unmarked)", "nM", "=", 1050],
  ["CC(=O)Nc1ncc(S(=O)(=O)N2CCCC(Oc3cc(C)nc(C)c3)C2)s1 (centres unmarked)", "nM", "=", 661],
  ["CC(=O)Nc1ncc(CN2CCCC(c3ccccc3)C2)s1 (centres unmarked) [compound 5, reference compound]", "nM", "=", 141],
  ["CC(=O)Nc1ncc(S(=O)(=O)N2CCC(c3ccnc(C)c3)C2)s1 (centres unmarked)", "nM", ">", 10000],
  ["CC(=O)Nc1ncc(CN2CCCC(Oc3cc(C)nc(C)c3)C2)s1 (centres unmarked)", "nM", "=", 8.13]
]}
